Listing of entries alongside the reported IC (TGI).
- System: MDA-MB-231 cells
- test: cells
- condition_summary: Homo sapiens, MDA-MB-231, 72 h, read-out: TGI
Write the answer as a number in nM, unit excluded.

1) COc1ccc2oc3c(c2c1)CCN[C@]31CS[C@@H]2c3c(OC(C)=O)c(C)c4c(c3[C@H](COC1=O)N1[C@@H]2[C@H]2c3c(cc(C)c(OC)c3O)C[C@@H]([C@@H]1O)N2C)OCO4	8.27

Fill in: IC (TGI) of COc1ccc2[nH]c3c(c2c1)C[C@H](CO)N[C@]31CS[C@@H]2c3c(OC(C)=O)c(C)c4c(c3[C@H](COC1=O)N1[C@@H]2[C@H]2c3c(cc(C)c(OC)c3O)C[C@@H]([C@@H]1C#N)N2C)OCO4 is ___ 1.34

Repeat with COc1ccc2[nH]c3c(c2c1)C[C@@H](CN)N[C@]31CS[C@@H]2c3c(OC(C)=O)c(C)c4c(c3[C@H](COC1=O)N1[C@@H]2[C@H]2c3c(cc(C)c(OC)c3O)C[C@@H]([C@@H]1C#N)N2C)OCO4 1.94

Repeat with COc1c(C)cc2c(c1O)[C@@H]1[C@@H]3[C@@H]4SC[C@]5(N[C@H](C(=O)O)Cc6c5[nH]c5ccccc65)C(=O)OC[C@@H](c5c6c(c(C)c(OC(C)=O)c54)OCO6)N3[C@@H](O)[C@H](C2)N1C 213

Source: patent US10538535B2
